Settings: 313.15 K; 101.33 kPa; Liquid
readout type: mass density (kg/m3)
Value expressed in kg/m3; do not type the unit.

Below, 4 compounds whose answers are already recorded.
INSERT INTO assay_data (compound, readout_type, unit_descriptor, observed_result) VALUES
  ('Cc1ccccc1', 'mass density', 'kg/m3', 848.16),
  ('Cc1ccc(C)cc1', 'mass density', 'kg/m3', 843.64),
  ('c1ccccc1', 'mass density', 'kg/m3', 857.97),
  ('CCCCOCCO', 'mass density', 'kg/m3', 883.4);

Let us move to another entry and its mass density.
Recorded mass density (compound C=C(C)C(=O)OC [methyl methacrylate] ): 920.26

---

The molecules listed here are annotated with their mass density.
Details: 308.15 K; 101.33 kPa; Liquid
Numbers after ± are expanded uncertainties.
Returns: string containing the number followed by the unit.

INSERT INTO assay_data (molecule, observed_result) VALUES
  ('CCCCOCCO', '888.91 ± 1.2 kg/m3'),
  ('C=C(C)C(=O)OC [methyl methacrylate]', '925.74 ± 1 kg/m3'),
  ('Cc1ccc(C)cc1', '847.88 ± 1.5 kg/m3');

Recorded mass density (molecule `c1ccccc1` ): 862.96 ± 1.4 kg/m3

Recorded mass density (molecule `Cc1ccccc1` ): 852.86 ± 1.4 kg/m3

---

The compounds listed here are annotated with their speed of sound.
Details: 298.15 K; 101.33 kPa; Liquid
Value expressed in m/s; do not type the unit.

Below, 4 compounds whose answers are already recorded.
INSERT INTO assay_data (compound, observed_result) VALUES
  ('Cc1ccccc1', 1304),
  ('CCCCOCCO', 1304),
  ('c1ccccc1', 1299),
  ('C=C(C)C(=O)OC [methyl methacrylate]', 1181);

Let us move to another entry and its speed of sound.
Recorded speed of sound (compound `Cc1ccc(C)cc1` ): 1308

---

Conditions: 303.15 K; 101.33 kPa; Liquid
The label true (1) is reserved for mass density strictly under 900 kg/m3; false (0) covers values equal to or above it.

Request: Consider the compound c1ccccc1 [benzene] . Is its mass density strictly less than 900 kg/m3?
Response: true (1)

Request: Consider the compound C=C(C)C(=O)OC [methyl methacrylate] . Is its mass density strictly less than 900 kg/m3?
Response: false (0)

Request: Consider the compound Cc1ccccc1 [toluene] . Is its mass density strictly less than 900 kg/m3?
Response: true (1)

Request: Consider the compound Cc1ccc(C)cc1 [1,4-dimethylbenzene] . Is its mass density strictly less than 900 kg/m3?
Response: true (1)

---

The compounds listed here are annotated with their speed of sound.
Conditions: 308.15 K; 101.33 kPa; Liquid
± gives the expanded uncertainty stated by the source.

INSERT INTO results (compound, observed_result) VALUES
  ('Cc1ccc(C)cc1', '1276 ± 6 m/s'),
  ('CCCCOCCO', '1285 ± 6 m/s'),
  ('Cc1ccccc1', '1262 ± 5 m/s'),
  ('C=C(C)C(=O)OC [methyl methacrylate]', '1153 ± 5 m/s');

Let us move to another entry and its speed of sound.
Recorded speed of sound (compound `c1ccccc1` ): 1260 ± 5 m/s

---

Conditions: 298.15 K; 101.33 kPa; Liquid
readout type: mass density (kg/m3)
Value expressed in kg/m3; do not type the unit.

Below, 4 molecules whose answers are already recorded.
INSERT INTO assay_data (molecule, readout_type, observed_result) VALUES
  ('Cc1ccc(C)cc1', 'mass density', 856.62),
  ('CCCCOCCO', 'mass density', 896.25),
  ('c1ccccc1', 'mass density', 873.61),
  ('C=C(C)C(=O)OC [methyl methacrylate]', 'mass density', 937.63);

Let us move to another entry and its mass density.
Recorded mass density (molecule `Cc1ccccc1` ): 862.2

Values compiled from the NIST ThermoML archive (doi:10.1021/je034022n).
